Field: Papp. Provide a value for each of the compounds that follow.
assay: Parallel Artificial Membrane Permeability Assay (PAMPA); assay type: in vitro ADME; details: 200 μM, pH 7.4, 20% 1-propanol cosolvent, 4 h, room temperature, read-out: Pe × 10-6 (cm/s), effective permeability
# number only, unit ×10⁻⁶ cm/s dropped from output

# input compound: `CO[C@]12CC[C@@]3(C/C1=C(/C)C(C)(C)C)[C@H]1Cc4ccc(O)c5c4[C@@]3(CCN1C(=O)[C@H](CC(C)C)NC(=O)[C@H](Cc1ccccc1)NC(=O)CNC(=O)CNC(=O)[C@@H](N)Cc1ccc(O)cc1)[C@H]2O5` ; wanted: its Papp
3.46

Subsequent entry: `COc1ccc2c3c1O[C@@H]1[C@]34CCN(C(=O)[C@H](CCSC)NC(=O)[C@H](Cc3ccccc3)NC(=O)CNC(=O)CNC(=O)[C@@H](N)Cc3ccc(O)cc3)[C@H](C2)[C@]42CC[C@@]1(OC)/C(=C(\C)C(C)(C)C)C2`
0.77

Subsequent entry: CSCC[C@H](NC(=O)[C@H](Cc1ccccc1)NC(=O)CNC(=O)CNC(=O)[C@@H](N)Cc1ccc(O)cc1)C(=O)O [Standard Met-enkephalin, Met-enkephalin, reference compound]
0.09

Subsequent entry: CC(C)C[C@H](NC(=O)[C@H](Cc1ccccc1)NC(=O)CNC(=O)CNC(=O)[C@@H](N)Cc1ccc(O)cc1)C(=O)O [Standard Leu-enkephalin, Leu-enkephalin, reference compound]
0.38

Subsequent entry: `CO[C@]12CC[C@@]3(CC1=C(C)C(C)(C)C)[C@H]1Cc4ccc(O)c5c4[C@@]3(CCN1C(=O)CCC(=O)N[C@@H](Cc1ccc(O)cc1)C(=O)NCC(=O)NCC(=O)N[C@@H](Cc1ccccc1)C(=O)N[C@@H](CC(C)C)C(=O)O)[C@H]2O5`
0.63

Subsequent entry: `COc1ccc2c3c1O[C@@H]1[C@]34CCN(C(=O)[C@H](CCSC)NC(=O)[C@H](Cc3ccccc3)NC(=O)CNC(=O)CNC(=O)[C@@H](N)Cc3ccc(O)cc3)[C@H](C2)[C@]42CC[C@@]1(OC)/C(=C(/C)C(C)(C)C)C2`
1.42

Subsequent entry: `CO[C@]12CC[C@@]3(CC1=C(C)C(C)(C)C)[C@H]1Cc4ccc(O)c5c4[C@@]3(CCN1C(=O)c1ccccc1C(=O)N[C@@H](Cc1ccc(O)cc1)C(=O)NCC(=O)NCC(=O)N[C@@H](Cc1ccccc1)C(=O)N[C@@H](CC(C)C)C(=O)O)[C@H]2O5`
0.92

Subsequent entry: `CO[C@]12CC[C@@]3(C/C1=C(\C)C(C)(C)C)[C@H]1Cc4ccc(O)c5c4[C@@]3(CCN1C(=O)[C@H](CC(C)C)NC(=O)[C@H](Cc1ccccc1)NC(=O)CNC(=O)CNC(=O)[C@@H](N)Cc1ccc(O)cc1)[C@H]2O5`
2.13
